# TGI per entry
System: 786-0 renal
Test: NCI tumour cell line growth inhibition, 48 h
OBSERVED_PROPERTY: TGI

• CCOC(=O)c1cnc2c(ccc3ncccc32)c1NCCCN(CC)CC = > 100 µM
• O=C1c2ccccc2C2C1C(c1ccccc1)C1(Cc3ccccc3C1=O)C2c1ccccc1 (configuration not stated) = > 100 µM
• O=C1c2ccccc2-c2c1c1c(O)cccc1n2Cc1ccccn1 = > 100 µM
• CCCCNC(=O)C1C2CCC(O2)C1C(=O)O (configuration not stated) = 31.5 µM
• O=C(O)[C@H](Cc1ccccc1)NCCN1CCC[C@H]1C(=O)O = > 100 µM
• Nc1ccc(-c2cccs2)cc1NC(=O)c1ccc(CCCC(=O)Nc2ccc(C3CC3N)cc2)cc1 (configuration not stated) = 3.37 µM
• CCCN(CCC)c1ccc(/C=N/NC(=O)c2cccnc2)c(OC)c1 = > 100 µM
• COC(=O)[C@H]1COC(=O)N1 = > 100 µM
• CC1(c2ccc(Cl)s2)CC(c2ccc(Cl)s2)=C(C#N)C(=C(C#N)C#N)N1 (configuration not stated) = 40.6 µM
• O=NNc1ccc(Sc2ccc(NN=O)cn2)nc1 = > 100 µM
• O=C(NO)[C@@H](Cc1ccccc1)NS(=O)(=O)c1ccc(-c2ccccc2)cc1 = > 25 µM
• C#CCN(N=O)C(=O)NCCCCC(NC(C)=O)C(=O)NCc1ccccc1 (configuration not stated) = > 100 µM
• C=C1C(=O)OC2C3C(=C)[C@@H](OC(C)=O)CC3C(C)=CC(OC(=O)C(C)(OC(C)=O)C(C)OC(C)=O)[C@@H]12 (some centres not stated) = 33.5 µM
• CC1=C(/C=C/C(C)=C/C=C/C(C)=C/C(=O)O)C(C)(C)CCC1 = 68.1 µM
• OCCNc1nc(Nc2ccc(Cl)c(Cl)c2)nc2ccccc12 = 11 µM
• O=c1[nH]nc(-c2ccccc2)n1/N=C/c1ccccc1Cl = > 100 µM
• CN(CC(=O)Nc1nc2ccccc2[nH]1)S(=O)(=O)c1ccc(Cl)cc1 = > 100 µM
• [N-]=[N+]=NCCCn1c2c(c3ccc([N+](=O)[O-])cc3c1=O)C(=O)c1cc(F)ccc1-2 = 2.01 µM
• CCOC(=O)c1cc(Br)c(-c2cc(C)no2)[nH]1 = > 100 µM
• CN(C)CCNC(=O)Cn1cnc2cccc([N+](=O)[O-])c2c1=O = > 100 µM
• CCN(CC)C(=S)SC(C(=O)Nc1nnc(-c2ccccc2)o1)c1ccccc1 (configuration not stated) = 61.1 µM
• C[C@]12CC[C@@H]3c4ccc(O)cc4CC[C@H]3[C@@H]1CC[C@@H]2OC(=O)CCc1ccccc1 = > 100 µM
